tested on: CHSA8926 (Chondrosarcoma); test: combination Emax (second highest fraction inhibited in the dose matrix, 72 h); higher = more inhibition; extreme values may be limits of the assay
endpoint.label: combination Emax

- molecule: "CC1(C)CCC(CN2CCN(c3ccc(C(=O)NS(=O)(=O)c4ccc(NCC5CCOCC5)c([N+](=O)[O-])c4)c(Oc4cnc5[nH]ccc5c4)c3)CC2)=C(c2ccc(Cl)cc2)C1 [Venetoclax] + Cn1cnc2c(F)c(Nc3ccc(Br)cc3Cl)c(C(=O)NOCCO)cc21 [Selumetinib] (first compound max 1 µM, 7x7, partner max 3 µM)"
  measurement: 0.148
- molecule: "COc1cccc(OCCCN)c1-c1cc(Nc2cnc(C#N)cn2)n[nH]1 [Prexasertib] + C[C@@H]1COCCN1C2=NC(=NC(=C2)C3(CC3)[S@](=N)(=O)C)C4=C5C=CNC5=NC=C4 [AZD6738] (first compound max 1 µM, 7x7, partner max 10 µM)"
  measurement: 0.361
- molecule: "C=CCn1c(=O)c2cnc(Nc3ccc(N4CCN(C)CC4)cc3)nc2n1-c1cccc(C(C)(C)O)n1 [AZD1775] + C1CN(CCC1(C(=O)N[C@@H](CCO)C2=CC=C(C=C2)Cl)N)C3=NC=NC4=C3C=CN4 [Capivasertib] (first compound max 3 µM, partner max 3 µM)"
  measurement: 0.578

---

test system: HCC1187 (Breast Carcinoma); experiment: Bliss excess, mean over the matrix (fraction); higher = more synergy;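 also: after 72 h of two-drug dosing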

- molecule: "Cc1c2c(nn1C)CSCc1cc(n(C)n1)CSc1cc(c3ccccc3c1)OCCCc1c(C(=O)O)n(C)c3c-2c(Cl)ccc13 [AZD5991] + Cc1cc2ncnn2cc1Nc1ncc2c(n1)n(C1CCOCC1)c(=O)n2C [AZD7648] (first compound max 1 µM, 7x7, partner max 10 µM)"
  experimental.system: "HCC1187 (Breast Carcinoma)"
  Bliss excess: -0.0299
- molecule: "CCN(CCO)CCCOc1ccc2c(Nc3cc(CC(=O)Nc4cccc(F)c4)[nH]n3)ncnc2c1 [AZD2811] + C=CCn1c(=O)c2cnc(Nc3ccc(N4CCN(C)CC4)cc3)nc2n1-c1cccc(C(C)(C)O)n1 [AZD1775] (first compound max 1 µM, partner max 1 µM)"
  experimental.system: "HCC1187 (Breast Carcinoma)"
  Bliss excess: -0.0086
- molecule: "COc1nnc2ccc(N3CCC(c4ccc(OCCN5CCN(C)C(=O)[C@H]5C)cc4)CC3)nn12 [AZD5153] + CCN(CCO)CCCOc1ccc2c(Nc3cc(CC(=O)Nc4cccc(F)c4)[nH]n3)ncnc2c1 [AZD2811] (first compound max 1 µM, 7x7, partner max 1 µM)"
  experimental.system: "HCC1187 (Breast Carcinoma)"
  Bliss excess: -0.0934
- molecule: "NC1(C(=O)N[C@@H](CCO)c2ccc(Cl)cc2)CCN(c2ncnc3[nH]ccc23)CC1 [Capivasertib] + COc1nnc2ccc(N3CCC(c4ccc(OCCN5CCN(C)C(=O)[C@H]5C)cc4)CC3)nn12 [AZD5153] (first compound max 10 µM, 7x7, partner max 1 µM)"
  experimental.system: "HCC1187 (Breast Carcinoma)"
  Bliss excess: 0.0491

---

test system: HCC1419 (Breast Carcinoma); test: combination Emax (second highest fraction inhibited in the dose matrix, 72 h); higher = more inhibition; extreme values may be limits of the assay

- molecule: "CC1(C)CCC(CN2CCN(c3ccc(C(=O)NS(=O)(=O)c4ccc(NCC5CCOCC5)c([N+](=O)[O-])c4)c(Oc4cnc5[nH]ccc5c4)c3)CC2)=C(c2ccc(Cl)cc2)C1 [Venetoclax] + C1CN(CCC1(C(=O)N[C@@H](CCO)C2=CC=C(C=C2)Cl)N)C3=NC=NC4=C3C=CN4 [Capivasertib] (first compound max 1 µM, 7x7, partner max 3 µM)"
  experimental.system: "HCC1419 (Breast Carcinoma)"
  combination Emax: 0.53

---

system: KMS-12-BM (Plasma Cell Myeloma); test: combination Emax (second highest fraction inhibited in the dose matrix, 72 h); higher = more inhibition; extreme values may be limits of the assay

- compound: "NC1(C(=O)N[C@@H](CCO)c2ccc(Cl)cc2)CCN(c2ncnc3[nH]ccc23)CC1 [Capivasertib] + Cn1cnc2c(F)c(Nc3ccc(Br)cc3Cl)c(C(=O)NOCCO)cc21 [Selumetinib] (first compound max 10 µM, 7x7, partner max 10 µM)"
  experimental.system: "KMS-12-BM (Plasma Cell Myeloma)"
  combination Emax: 0.427
- compound: "C[C@@H]1COCCN1c1cc(C2([S@](C)(=N)=O)CC2)nc(-c2ccnc3[nH]ccc23)n1 [AZD6738] + O=C(c1cc(Cc2n[nH]c(=O)c3ccccc23)ccc1F)N1CCN(C(=O)C2CC2)CC1 [Olaparib] (first compound max 10 µM, 7x7, partner max 10 µM)"
  experimental.system: "KMS-12-BM (Plasma Cell Myeloma)"
  combination Emax: 0.945
- compound: "CCN(CCO)CCCOc1ccc2c(Nc3cc(CC(=O)Nc4cccc(F)c4)[nH]n3)ncnc2c1 [AZD2811] + C=CCn1c(=O)c2cnc(Nc3ccc(N4CCN(C)CC4)cc3)nc2n1-c1cccc(C(C)(C)O)n1 [AZD1775] (first compound max 1 µM, partner max 1 µM)"
  experimental.system: "KMS-12-BM (Plasma Cell Myeloma)"
  combination Emax: 0.944
- compound: "Cc1nc(Nc2ncc(C(=O)Nc3c(C)cccc3Cl)s2)cc(N2CCN(CCO)CC2)n1 [Dasatinib] + CC(=O)Nc1cccc(-n2c(=O)n(C3CC3)c(=O)c3c(Nc4ccc(I)cc4F)n(C)c(=O)c(C)c32)c1 [Trametinib] (first compound max 2 µM, 7x7, partner max 1 µM)"
  experimental.system: "KMS-12-BM (Plasma Cell Myeloma)"
  combination Emax: 0.396
- compound: "CCc1c2c(nc3ccc(O)cc13)-c1cc3c(c(=O)n1C2)COC(=O)[C@]3(O)CC [SN-38] + CN(C)CCCOc1ccc(-c2ccc3ncc4c(c3c2)n(C2CCOCC2)c(=O)n4C)cn1 [AZD0156] (first compound max 0.3 µM, 7x7, partner max 1 µM)"
  experimental.system: "KMS-12-BM (Plasma Cell Myeloma)"
  combination Emax: 0.96
- compound: "CN(CCO)CC[C@H](CSc1ccccc1)Nc1ccc(S(=O)(=O)NC(=O)c2ccc(N3CCC([C@@H](O)c4ccccc4-c4ccc(Cl)cc4)CC3)cc2)cc1S(=O)(=O)C(F)(F)F [AZD4320] + C=CCn1c(=O)c2cnc(Nc3ccc(N4CCN(C)CC4)cc3)nc2n1-c1cccc(C(C)(C)O)n1 [AZD1775] (first compound max 1 µM, partner max 1 µM)"
  experimental.system: "KMS-12-BM (Plasma Cell Myeloma)"
  combination Emax: 1

---

Measured combination Emax accompanies every entry in the list below.
test system: KYSE-270 (Esophageal Squamous Cell Carcinoma); assay: combination Emax (second highest fraction inhibited in the dose matrix, 72 h); higher = more inhibition; extreme values may be limits of the assay

- compound: "CC(=O)c1c(C)c2cnc(Nc3ccc(N4CCNCC4)cn3)nc2n(C2CCCC2)c1=O [Palbociclib] + Cc1c2c(nn1C)CSCc1cc(n(C)n1)CSc1cc(c3ccccc3c1)OCCCc1c(C(=O)O)n(C)c3c-2c(Cl)ccc13 [AZD5991] (first compound max 10 µM, 7x7, partner max 1 µM)"
  combination Emax: 0.568
- compound: "CN(C)CCCOc1ccc(-c2ccc3ncc4c(c3c2)n(C2CCOCC2)c(=O)n4C)cn1 [AZD0156] + C=CCn1c(=O)c2cnc(Nc3ccc(N4CCN(C)CC4)cc3)nc2n1-c1cccc(C(C)(C)O)n1 [AZD1775] (first compound max 1 µM, partner max 1 µM)"
  combination Emax: 0.676
- compound: "COc1cc2ncnc(Nc3ccc(F)c(Cl)c3)c2cc1OCCCN1CCOCC1 [Gefitinib] + CC(C)n1c(=O)n(C)c2cnc3cc(F)c(-c4ccc(OCCCN5CCCCC5)nc4)cc3c21 [AZD1390] (first compound max 10 µM, 7x7, partner max 0.3 µM)"
  combination Emax: 0.435
- compound: "Cc1c2c(nn1C)CSCc1cc(n(C)n1)CSc1cc(c3ccccc3c1)OCCCc1c(C(=O)O)n(C)c3c-2c(Cl)ccc13 [AZD5991] + Nc1ccn([C@@H]2O[C@H](CO)[C@@H](O)C2(F)F)c(=O)n1 [Gemcitabine] (first compound max 1 µM, 7x7, partner max 0.3 µM)"
  combination Emax: 0.965
- compound: "COc1cccc(OCCCN)c1-c1cc(Nc2cnc(C#N)cn2)n[nH]1 [Prexasertib] + O=C(c1cc(Cc2n[nH]c(=O)c3ccccc23)ccc1F)N1CCN(C(=O)C2CC2)CC1 [Olaparib] (first compound max 1 µM, 7x7, partner max 10 µM)"
  combination Emax: 0.964
- compound: "C[C@@H](Oc1cc(-c2cnn(C3CCNCC3)c2)cnc1N)c1c(Cl)ccc(F)c1Cl [Crizotinib] + Cn1cnc2c(F)c(Nc3ccc(Br)cc3Cl)c(C(=O)NOCCO)cc21 [Selumetinib] (first compound max 10 µM, 7x7, partner max 10 µM)"
  combination Emax: 0.441
- compound: "NC1(C(=O)N[C@@H](CCO)c2ccc(Cl)cc2)CCN(c2ncnc3[nH]ccc23)CC1 [Capivasertib] + Cn1cnc2c(F)c(Nc3ccc(Br)cc3Cl)c(C(=O)NOCCO)cc21 [Selumetinib] (first compound max 10 µM, 7x7, partner max 10 µM)"
  combination Emax: 0.476

Origin of measurements: the supplement of paper PMC11061612
